- Test system: WM164
- assay_info: MTT assay, inhibitory effect of RB in different delivery systems
- Type: cell-based, human
- measurement_parameters: RB aqueous solution, WM164, 24 h
attribute_measured: IC50 (µM)
Note: unit µM is implicit; provide only the numeric part.

Input: Report IC50 for `O=C([O-])c1c(Cl)c(Cl)c(Cl)c(Cl)c1-c1c2cc(I)c(=O)c(I)c-2oc2c(I)c([O-])c(I)cc12.[Na+].[Na+]` tested on WM164.
Output: 112

====

- Test system: HaCaT
- assay_info: MTT assay, inhibitory effect of RB in different delivery systems
- Assay type: cell-based, human
- measurement_parameters: RB aqueous solution, 24 h, read-out: IC50
- Protocol: Human melanoma cell lines (WM164, WM1366, and D24), spontaneously immortalized normal human keratinocytes (HaCaT), and primary skin fibroblast cells were kindly provided by A/Prof. Helmut Schaider’s laboratory (University of Queensland Diamantina Institute). […] The MTT cell viability assay was also used as a proxy measure for cell proliferation. […] After a specific period, cell viability was evaluated by MTT assay. […]
attribute_measured: pIC50
Kindly note that pIC50 refers to -log10 of the concentration in mol/L and answer with the value alone.

Input: Consider the compound `O=C([O-])c1c(Cl)c(Cl)c(Cl)c(Cl)c1-c1c2cc(I)c(=O)c(I)c-2oc2c(I)c([O-])c(I)cc12.[Na+].[Na+]` and give its measured pIC50.
Output: 2.65
